Every entry's value here was drawn from patent US20240092784A1.

Listed next: entries and their corresponding IC50.
# target.or.system: human SPR (Homo sapiens (Human), UniProt P35270)
# Sequence (P35270 whole entry): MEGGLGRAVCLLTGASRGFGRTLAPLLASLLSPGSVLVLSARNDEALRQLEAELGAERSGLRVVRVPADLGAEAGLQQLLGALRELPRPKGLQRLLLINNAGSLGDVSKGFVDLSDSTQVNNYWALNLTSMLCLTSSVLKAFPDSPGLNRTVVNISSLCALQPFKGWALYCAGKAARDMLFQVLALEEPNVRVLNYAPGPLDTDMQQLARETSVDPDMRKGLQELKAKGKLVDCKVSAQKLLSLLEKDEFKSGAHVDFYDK
# method.description: Evaluation Example 2: Measurement of human SPR inhibitory activity (seven concentrations, sepiapterin absorbance at 420 nm)
# Assay type: biochemical
# setup.conditions: Evaluation Example 2, seven concentrations 0.14 nM to 100 nM, 240 minutes at room temperature, read-out: IC50
Structures can show the parent of a compound that is named as a salt.

compound	IC50 / nM
CC(C)(C)Cn1c(=O)c(C(=O)NC2CC2)c(O)n2nc(-c3cc(C#N)cnc3N)cc12 [Synthesis Example 291]	6.42
Cc1nn2c(O)c(C(=O)NC3CC3)c(=O)n(CC(C)(C)C)c2c1/C=C/C(=O)N1[C@@H](C)COC[C@@H]1C [Synthesis Example 624]	0.98
CC(C)Cn1c(=O)c(C(=O)NC2CC2)c(O)n2ncc(/C=C/C(=O)N3[C@H](C)CC[C@H]3C)c12 [compound 590]	1.09
CC(C)(C)Cn1c(=O)c(C(=O)NC2CC2)c(O)n2nc3c(c12)CCN3 [Synthesis Example 396]	1.35
Cc1nn2c(O)c(C(=O)NC3CC3)c(=O)n(CC(C)C)c2c1/C=C/C(=O)N1CCC[C@@H]1C(C)C [Synthesis Example 629]	1.14
CC(C)Cn1c(=O)c(C(=O)NC2CC2)c(O)n2ncc(C3=CCCNC3)c12 [Synthesis Example 239, hydrochloride]	0.72
Cc1nn2c(O)c(C(=O)NC3CC3)c(=O)n(CC(C)C)c2c1/C=C/C(=O)N1CCOC[C@H]1C [compound 570]	0.75
CC[C@@H]1COCCN1C(=O)/C=C/c1c(C)nn2c(O)c(C(=O)NC3CC3)c(=O)n(CC(C)C)c12 [compound 573]	0.88
CC(C)(C)Cn1c(=O)c(C(=O)NC2CC2)c(O)n2nc(Nc3cnc(C(=O)NCC(C)(C)O)cn3)cc12 [Synthesis Example 354]	0.86
CC[C@@H]1COCCN1C(=O)/C=C/c1cnn2c(O)c(C(=O)NC3CC3)c(=O)n(CC(C)C)c12 [compound 540]	0.66
CC(C)(C)Cn1c(=O)c(C(=O)NC2CC2)c(O)n2nc(Nc3cnc(C(=O)N4CCOCC4)cn3)cc12 [Synthesis Example 335]	0.73
Cc1nn2c(O)c(C(=O)NC3CC3)c(=O)n(CC(C)C)c2c1/C=C/C(=O)N1C2CCC1CC(F)(F)C2 [Synthesis Example 650]	0.95
CC(C)(C)Cn1c(=O)c(C(=O)NC2CC2)c(O)n2nc(-c3cn[nH]c3C#N)cc12 [Synthesis Example 301]	1.22
CC(C)(C)Cn1c(=O)c(C(=O)NC2CC2)c(O)n2nc(-c3[nH]ncc3C(=O)N3CCC(F)(F)C3)cc12 [Synthesis Example 316, hydrochloride]	0.9
